tested on: SK-MEL-5; experiment: NCI tumour cell line growth inhibition, 48 h
The source made the active and inactive calls. No stated cut-off is given here; in the data, active = GI50 up to about 1.1 µM and inactive = higher.
Assay Endpoint: GI50

INSERT INTO results (compound, test_result) VALUES
  ('O=C1CCc2c3c(c4c([nH]c5ccccc54)c2CC1)C(=O)NC3=O', '1.91 µM (inactive)'),
  ('ClC(Cl)[Si]12OCCN(CCO1)CCO2', '> 100 µM (inactive)'),
  ('CCCCOC(=O)NC(=O)c1cn(CCSCCOC(=O)NCCCCCCNC(=O)OCCSCCn2cc(C(=O)NC(=O)OCCCC)c(=O)[nH]c2=O)c(=O)[nH]c1=O', '> 100 µM (inactive)'),
  ('NS(=O)(=O)c1ccc(NC(=O)N/N=C/c2ccccc2[N+](=O)[O-])cc1', '65.5 µM (inactive)'),
  ('CN1CCN(CCSC2Cc3cc(Cl)ccc3Sc3ccccc32)CC1 (stereo not given)', '3.26 µM (inactive)');

* * *

tested on: UACC-257; assay: NCI tumour cell line growth inhibition, 48 h
Calls of active or inactive are those of the source. Cut-off read from the data, not from the text of the source: active = GI50 up to about 1.1 µM and inactive = higher.
Assay Endpoint: GI50

INSERT INTO measurements (molecule, study_system, test_result) VALUES
  ('CC(O)CN1c2ccccc2Sc2ccccc21 (stereo unspecified)', 'UACC-257', '> 100 µM (inactive)'),
  ('CC1NC(=O)c2c(-c3ccccc3)nn(-c3ccccc3)c2NC1=O (stereo unspecified)', 'UACC-257', '> 100 µM (inactive)'),
  ('CCOC(=O)/C(=C\c1c(C)[nH]c2ccccc12)P(=O)(OCC)OCC', 'UACC-257', '> 100 µM (inactive)'),
  ('Cc1ccc(NC(Nc2ccc(C)cc2C)=C(/C=C(\Cl)[N+](=O)[O-])[N+](=O)[O-])c(C)c1', 'UACC-257', '4.81 µM (inactive)'),
  ('O=C(N[C@H](CO)[C@H](O)c1ccc([N+](=O)[O-])cc1)C(Cl)Cl', 'UACC-257', '> 100 µM (inactive)'),
  ('S=C1NC(c2ccccc2)NC(c2ccccc2)S1 (stereo unspecified)', 'UACC-257', '34.6 µM (inactive)');

* * *

system: A498; experiment: NCI tumour cell line growth inhibition, 48 h
Calls of active or inactive are those of the source. Cut-off read from the data, not from the text of the source: active = GI50 up to about 1.1 µM and inactive = higher.
Classes used: class 1 (active), class 0 (inactive)

INSERT INTO measurements (compound, qualitative_label) VALUES
  ('CC(=O)OC(C)(C)/C=C/C(=O)[C@](C)(O)[C@H]1[C@H](O)C[C@@]2(C)[C@@H]3CC=C4[C@@H](C[C@H](O)C(=O)C4(C)C)[C@]3(C)C(=O)C[C@]12C', 'class 1'),
  ('CCc1n[nH]c(=O)n1/N=C/c1ccc(C)cc1', 'class 0'),
  ('N=CCCN(CCC=N)c1ccc(/C=C2\CN(NC(=O)c3ccc(Cl)cc3)C(c3ccccc3)=N2)cc1', 'class 0'),
  ('Cc1ccccc1NC(=O)C1C(=O)N(c2ccccc2C)C(=O)/C1=N\NC(N)=O (stereo not drawn)', 'class 0'),
  ('COC(=O)c1ccc(NCC2=CC(=O)c3ccccc3C2=O)cc1', 'class 0'),
  ('O=C(O)[C@H](CCC[C@H]1C(=O)O[C@H](c2ccccc2)[C@H](c2ccccc2)N1C(=O)OCc1ccccc1)N[C@@H](c1ccccc1)[C@H](O)c1ccccc1', 'class 0'),
  ('CCC(NC1=NCCO1)c1cccs1 (stereo not drawn)', 'class 0'),
  ('COC(=O)[C@@H]1CS(=O)(=O)C(C(C)C)N1C(C)=O (stereo partly drawn)', 'class 0'),
  ('CC1(C)CC[C@]2(C(=O)O)[C@H](O)C[C@]3(C)C(=CC[C@@H]4[C@@]5(C)CC[C@H](OC6OC(C(=O)O)C(O)C(O)C6O)C(C)(C)[C@@H]5CC[C@]43C)[C@@H]2C1 (stereo partly drawn)', 'class 0'),
  ('O=C(O)CN(c1ccccc1)S(=O)(=O)c1ccc(Cl)cc1', 'class 0'),
  ('NC(=O)c1cc(C2OC(CO)C(O)C2O)nn1-c1ccc([N+](=O)[O-])cc1 (stereo not drawn)', 'class 0'),
  ('O=C(O)/C(=C/c1c(O)ccc2ccccc12)c1csc(-c2nc(/C(=C\c3c(O)ccc4ccccc34)C(=O)O)cs2)n1', 'class 0'),
  ('COC(=O)n1c(=O)nc2c3c(ncn21)Oc1c(c(-c2ccccc2)nn1-c1ccccc1)C3c1ccc(Cl)cc1 (stereo not drawn)', 'class 0'),
  ('O=c1c2c3c(sc2nc2n1N=CN(c1ccccc1)C2)CCCC3', 'class 0'),
  ('Oc1nc(S)nc(SCc2c(Cl)c(Cl)c(Cl)c(Cl)c2Cl)n1', 'class 0'),
  ('c1ccc(P(CCP(c2ccccn2)c2ccccn2)c2ccccc2)cc1', 'class 0'),
  ('O=c1cc[nH]c2ccc3nn[nH]c3c12', 'class 0'),
  ('Cc1ccc(C)c2c1C/C(=C\c1ccccc1C(=O)O)C2=O', 'class 0');
